meta.source: ChEMBL document CHEMBL5226287

RUN DESCRIPTION: Inhibition of Mycobacterium smegmatis cytochrome bd oxidase with ATP overexpression inverted membrane vesicles
Assay type: cell membranes, Mycobacterium tuberculosis, Membrane vesicle
Recorded IC50 by entry
Response body: numeric value in µM, unit text excluded.

line_notation=O=C(CNC1CCCCC1)N(c1ccccc1)c1ccccc1 reported_endpoint=IC50 measurement_units=µM quantitative_result=10.4

Please examine the following record next.
Item: O=C(CNC1CCCC1)N(c1ccccc1)c1ccccc1 | IC50: 14
